Where do these numbers come from? They come from patent US11464770B2.

system: blood cancer cell lines (e.g. HL-60, Jurkat, Raji, Ramos, Daudi, MOLT-4); experiment: Cell based assay, cell viability (CellTiter-Glo), blood cancer cell lines; conditions: Homo sapiens, blood cancer cell line Daudi, 72 hours, read-out: IC50, Daudi
pIC50: −log10 of the molar value.
Would you mind telling me the reported pIC50 of each entry?

Ask | Name the recorded pIC50 for CC(=O)c1c([S+](C)[O-])n(S(=O)(=O)c2ccc(C(C)(C)C)cc2)c2c(Br)ccc(Cl)c2c1=O (centres unmarked) [Compound 42] .
Reply | < 5.70

Ask | Name the recorded pIC50 for CSc1c(C(C)=O)c(=O)c2c(Cl)ccc(Br)c2n1S(=O)(=O)c1ccc([N+](=O)[O-])cc1 [Compound 38] .
Reply | < 5.70

Ask | Name the recorded pIC50 for CSc1[nH]c2ccc(F)cc2c(=O)c1C(C)=O [Compound 8] .
Reply | < 5.70

Ask | Name the recorded pIC50 for Cc1cc(C[S+]([O-])c2[nH]c3c(Cl)ccc(Cl)c3c(=O)c2C(=O)C2CC2)no1 (centres unmarked) [Compound 97] .
Reply | 5.98

Ask | Name the recorded pIC50 for CC(=O)c1c([S+]([O-])Cc2ccc(C#N)s2)[nH]c2c(Br)ccc(Cl)c2c1=O (centres unmarked) [Compound 98] .
Reply | 5.83

Ask | Name the recorded pIC50 for CC(=O)c1c([S+]([O-])Cc2c(F)cccc2Cl)[nH]c2c(Br)ccc(Cl)c2c1=O (centres unmarked) [Compound 74] .
Reply | < 5.70

Ask | Name the recorded pIC50 for COCSc1[nH]c2c(Br)ccc(Cl)c2c(=O)c1C(C)=O [Compound 61] .
Reply | < 5.70

Ask | Name the recorded pIC50 for CSc1[nH]c2c(Br)ccc(Cl)c2c(=O)c1C(C)=O [Compound 2] .
Reply | < 5.70
